experiment: in vitro; design: resazurin reduction viability assay, fluorescence, cytotoxicity on murine macrophages; details: mouse, raw macrophages; read-out: CC50 (µg/mL) Raw264.7
Listed below: CC50 at 24 h values for each entry.

Which CC50 at 24 h is reported for this compound? CCCCCCCC/C=C\CCCCCC[C@@H]1C(=O)O[C@H]1CC (racemic) > 125 µg/mL

Next compound up: CCCCCCCC/C=C\CCCCCC[C@@H]1C(=O)O[C@H]1CCCCCCCCC (racemic) > 125 µg/mL

// switching to the query compound
What value of CC50 at 24 h has been reported for the following compound? C#CCCC1OC(=O)C1CCCCCCCC/C=C\CCCCCCCC (stereo not drawn) [VM035p] > 125 µg/mL
